# Tested on: 786-0
# Assay Summary: NCI tumour cell line growth inhibition, 48 h
Calls of active or inactive are those of the source. Cut-off read from the data, not from the text of the source: active = GI50 up to about 1.1 µM and inactive = higher.
Assay Readout: GI50

I'm hoping you can list GI50 for every compound here, please.
1. O=C(N/N=C/c1cc(-c2ccccc2Cl)c(-c2ccccc2Cl)o1)c1ccncc1
2. OCC1OC(n2cnc3c2NC=NC[C@H]3O)CC1O (some centres undefined)
3. COc1cc(S(=O)(=O)N/N=C/c2cc(Br)c(O)c(OC)c2)c(OC)cc1NC(C)=O
4. CC1=C(C(=O)Nc2ccc([N+](=O)[O-])cc2)C(c2ccc(N(C)C)cc2)C(C(=O)Nc2ccc([N+](=O)[O-])cc2)=C(C)N1
5. COc1cc2nc(-c3cccs3)nc(N3C(c4cc(OC)c(OC)c(OC)c4)=NNC(=O)c4ccccc43)c2cc1OC
6. CC(=O)c1cccc(Nc2c3ccccc3nc3occc23)c1
7. CCN(CC)CCSc1nc(-c2c[nH]c3nc(C)ccc3c2=O)n[nH]1

["> 100 µM (inactive)", "455 µM (inactive)", "27 µM (inactive)", "23.3 µM (inactive)", "35.6 µM (inactive)", "4.08 µM (inactive)", "> 100 µM (inactive)"]

I'm hoping you can list GI50 for every compound here, please.
1. COc1c(OC)c(OC)c2c(=O)cc(-c3ccc(OC(C)C)cc3)oc2c1OC
2. CC(NC(=O)c1ccc(OP(=O)(OCc2ccc([N+](=O)[O-])o2)N(C)CCCCCl)cc1)c1ccc(OCC2CCCCC2)c(C(N)=O)c1 (centres undefined)

1. > 34.1 µM (inactive)
2. 4.32 µM (inactive)
